# tgt: alpha2B receptor (Homo sapiens, UniProt P18089)
# Construct: expressed in transfected cells; host or cells: NIH-3T3
# Sequence (P18089 whole entry): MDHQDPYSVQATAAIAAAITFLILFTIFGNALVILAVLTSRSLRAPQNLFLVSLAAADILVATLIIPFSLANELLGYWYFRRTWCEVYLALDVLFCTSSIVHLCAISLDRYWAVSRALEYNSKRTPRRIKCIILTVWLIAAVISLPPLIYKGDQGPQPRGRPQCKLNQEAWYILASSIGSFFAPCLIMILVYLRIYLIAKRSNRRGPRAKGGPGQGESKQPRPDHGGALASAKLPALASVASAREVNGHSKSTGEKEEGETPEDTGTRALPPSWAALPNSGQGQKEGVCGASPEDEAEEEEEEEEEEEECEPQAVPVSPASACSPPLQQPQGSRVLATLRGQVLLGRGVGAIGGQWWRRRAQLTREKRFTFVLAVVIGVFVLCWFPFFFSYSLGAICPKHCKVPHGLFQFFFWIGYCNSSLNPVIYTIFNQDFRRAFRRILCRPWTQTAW
# assay-comment: Receptor Selection and Amplification Technology (RSAT) assay, alpha2B
# Format: cell-based
# measurement-context: ratio of maximal effect of the drug to maximal effect of standard full agonist brimonidine (UK14304)

compound	tgt	Alpha 2B IA (intrinsic activity)
O=C(NCCF)NC1CCc2cccc(F)c21 (stereo not shown)	alpha2B receptor (Homo sapiens, UniProt P18089)	1.08
O=C(NCCF)NC1CCc2c(Br)cccc21 (stereo not shown)	alpha2B receptor (Homo sapiens, UniProt P18089)	1.06
O=C(NCCF)NC1C=C(CO)CCC1 (stereo not shown)	alpha2B receptor (Homo sapiens, UniProt P18089)	0.58
O=C(NCCF)NC1CCCc2sccc21 (stereo not shown)	alpha2B receptor (Homo sapiens, UniProt P18089)	0.86
Cc1c(Br)ccc2c1C(NC(=O)NCCF)CC2 (stereo not shown)	alpha2B receptor (Homo sapiens, UniProt P18089)	0.37
O=C(NCCF)N[C@H]1CCc2ccccc21	alpha2B receptor (Homo sapiens, UniProt P18089)	1.0
O=C(NCCF)NC1CCc2c(O)cccc21 (stereo not shown)	alpha2B receptor (Homo sapiens, UniProt P18089)	0.96

###

# tgt: alpha2C receptor (Homo sapiens)
# Construct: expressed in transfected cells; host or cells: NIH-3T3
# Sequence (P18825 1-462): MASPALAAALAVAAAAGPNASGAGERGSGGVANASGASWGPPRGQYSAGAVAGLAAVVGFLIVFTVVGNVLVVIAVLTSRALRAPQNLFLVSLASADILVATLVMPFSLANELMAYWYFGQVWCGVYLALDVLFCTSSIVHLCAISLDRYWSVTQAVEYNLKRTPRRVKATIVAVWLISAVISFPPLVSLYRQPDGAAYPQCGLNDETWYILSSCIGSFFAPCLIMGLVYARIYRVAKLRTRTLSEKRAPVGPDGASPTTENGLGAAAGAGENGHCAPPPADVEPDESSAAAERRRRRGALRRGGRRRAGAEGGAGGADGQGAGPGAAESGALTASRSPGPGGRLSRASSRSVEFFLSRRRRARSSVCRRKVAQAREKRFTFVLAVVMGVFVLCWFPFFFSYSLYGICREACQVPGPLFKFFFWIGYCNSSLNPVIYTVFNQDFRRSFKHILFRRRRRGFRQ
# assay-comment: Receptor Selection and Amplification Technology (RSAT) assay, alpha2C
# Format: cell-based
# measurement-context: ratio of maximal effect of the drug to maximal effect of standard full agonist brimonidine (UK14304)
property-name: Alpha 2C IA (intrinsic activity)

compound	property-name	numeric-readout
O=C(NCCF)NC1CCc2cccc(F)c21 (centres unmarked)	Alpha 2C IA (intrinsic activity)	0.55
CCc1cccc2c1CCCC2NC(=O)NCCF (centres unmarked)	Alpha 2C IA (intrinsic activity)	0.34
CC1CCC(NC(=O)NCCF)c2ccccc21 (centres unmarked)	Alpha 2C IA (intrinsic activity)	0.45
O=C(NCCF)NC1Cc2cccc(F)c2C1 (centres unmarked)	Alpha 2C IA (intrinsic activity)	0.32
O=C(NCCF)NC1CCc2ccc(F)c(F)c21 (centres unmarked)	Alpha 2C IA (intrinsic activity)	0.53

###

# tgt: alpha2C receptor (Homo sapiens)
# Construct: expressed in transfected cells; host or cells: NIH-3T3
# assay-comment: Receptor Selection and Amplification Technology (RSAT) assay, alpha2C
# Format: cell-based
# measurement-context: RSAT, NIH-3T3 cells cotransfected with receptor and Gq/i5; not active = not active at concentrations less than 10 micromolar; read-out: Alpha 2C EC50

compound	EC50 (nM)
O=C(NCCF)NC1CCc2c(OC(=O)c3ccccc3)cccc21 (stereo not drawn)	102
O=C(NCCF)NC1CCc2cccc(Cl)c21 (stereo not drawn)	103
CCc1cccc2c1CCC2NC(=O)NCCF (stereo not drawn)	103
